Tested on: 966289-007-R4-J1-PDC complex spheroid viability
Test: Anticancer human tumor 966289-007-R4-J1-PDC patient-derived pancreatic adenocarcinoma cell line growth inhibition [GQUAD]; active = viability on the fitted dose curve at most 10% of control; inactive = the rest
Details: second compound 0.1 µM; first compound 10 µM
Reply using exactly one outcome from active, inactive

Example entries begin here.
Ask | Field: outcome | Entry: COc1ncnc(C2CC2)c1-c1ncc2cnn(Cc3ccc(-c4nc(C(F)(F)F)cn4C(C)C)cc3)c2n1 + CN(C)c1ccc(Nc2c3ccc(NC(=O)CCN4CCCC4)cc3nc3cc(NC(=O)CCN4CCCC4)ccc23)cc1
Reply | inactive

Ask | Outcome? C=CC(=O)N1CCN(c2nc(=O)n(-c3c(C)ccnc3C(C)C)c3nc(-c4c(O)cccc4F)c(F)cc23)C(C)C1 (stereo not drawn) + Cc1[nH]c2ccc(F)cc2c1-c1nc2c3cccnc3c3ncccc3c2[nH]1
Reply | inactive

Query compound follows.
Ask | Record request — test call for C=CCn1c(=O)c2cnc(Nc3ccc(N4CCN(C)CC4)cc3)nc2n1-c1cccc(C(C)(C)O)n1 + CN(C)c1ccc(Nc2c3ccc(NC(=O)CCN4CCCC4)cc3nc3cc(NC(=O)CCN4CCCC4)ccc23)cc1
Reply | active

---

Tested on: 966289-007-R4-J1-PDC complex spheroid viability
Experiment: Anticancer human tumor 966289-007-R4-J1-PDC cell line growth inhibition [GQUAD];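 note: spheroids exposed to the agents for seven days before readout; percent viability relative to DMSO vehicle control wells taken as 100%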
Settings: second compound 1 µM; first compound 0.1 µM; stronger effect = lower value
readout_type: viability, T/C (%)
Give the value, in units of %, as a plain number.

Ask | Look up 966289-007-R4-J1-PDC complex spheroid viability data: viability, T/C of CCCS(=O)(=O)Nc1ccc(F)c(C(=O)c2c[nH]c3ncc(-c4ccc(Cl)cc4)cc23)c1F + Cc1cnc(CNC(=O)c2c(=O)c3ccc(N4CCCN(C)CC4)nc3n3c2sc2ccccc23)cn1 , then report it.
Reply | 7.02

Continuing:
Ask | Param request: viability, T/C | system 966289-007-R4-J1-PDC complex spheroid viability | item COc1ncnc(C2CC2)c1-c1ncc2cnn(Cc3ccc(-c4nc(C(F)(F)F)cn4C(C)C)cc3)c2n1 + Cc1[nH]c2ccc(F)cc2c1-c1nc2c3cccnc3c3ncccc3c2[nH]1
Reply | 105

Ask | Enter measured viability, T/C, system 966289-007-R4-J1-PDC complex spheroid viability, for the compound shown: CC1COCCN1c1cc(C2(S(C)(=N)=O)CC2)nc(-c2ccnc3[nH]ccc23)n1 (stereo not drawn) + Cc1cnc(CNC(=O)c2c(=O)c3ccc(N4CCCN(C)CC4)nc3n3c2sc2ccccc23)cn1
Reply | 8.94

---

System: 966289-007-R4-J1-PDC complex spheroid viability
Assay: Anticancer human tumor 966289-007-R4-J1-PDC cell line growth inhibition [GQUAD];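 note: spheroids exposed to the agents for seven days before readout; percent viability relative to DMSO vehicle control wells taken as 100%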
Conditions: second compound 1 µM; first compound 0.000999 µM; stronger effect = lower value
Entries whose viability, T/C is below 90% take met; entries at or above 90% take not met.

Some entries whose results are on file:
Ask | Here's an entry: CCc1c2c(nc3ccc(O)cc13)-c1cc3c(c(=O)n1C2)COC(=O)[C@]3(O)CC + Cc1[nH]c2ccc(F)cc2c1-c1nc2c3cccnc3c3ncccc3c2[nH]1 . Is its viability, T/C below 90%?
Reply | met

Ask | Given the entry CCc1c2c(nc3ccc(O)cc13)-c1cc3c(c(=O)n1C2)COC(=O)[C@]3(O)CC + Cc1cnc(CNC(=O)c2c(=O)c3ccc(N4CCCN(C)CC4)nc3n3c2sc2ccccc23)cn1 , would its reported viability, T/C be below 90%?
Reply | met

Okay, now this molecule:
Ask | Determine if Cn1ncnc1[C@H]1c2n[nH]c(=O)c3cc(F)cc(c23)N[C@@H]1c1ccc(F)cc1 + Cc1cnc(CNC(=O)c2c(=O)c3ccc(N4CCCN(C)CC4)nc3n3c2sc2ccccc23)cn1 shows viability, T/C strictly lower than 90%.
Reply | met

---

Test system: 966289-007-R4-J1-PDC complex spheroid viability
Experiment: Anticancer human tumor 966289-007-R4-J1-PDC cell line growth inhibition [GQUAD];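 note: spheroids exposed to the agents for seven days before readout; percent viability relative to DMSO vehicle control wells taken as 100%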
Conditions: second compound 1 µM; first compound 0.316 µM; stronger effect = lower value
readout_type: viability, T/C

Ask | Retrieve viability, T/C measured for CC(=O)O[C@H]1C(=O)[C@@]2(C)[C@H]([C@H](OC(=O)c3ccccc3)[C@]3(O)C[C@H](OC(=O)[C@H](O)[C@@H](NC(=O)c4ccccc4)c4ccccc4)C(C)=C1C3(C)C)[C@]1(OC(C)=O)CO[C@@H]1C[C@@H]2O + CN(C)c1ccc(Nc2c3ccc(NC(=O)CCN4CCCC4)cc3nc3cc(NC(=O)CCN4CCCC4)ccc23)cc1 and print it.
Reply | 4.34%

Ask | Please supply the value of reported viability, T/C for the item Cn1ncnc1[C@H]1c2n[nH]c(=O)c3cc(F)cc(c23)N[C@@H]1c1ccc(F)cc1 + Cc1cnc(CNC(=O)c2c(=O)c3ccc(N4CCCN(C)CC4)nc3n3c2sc2ccccc23)cn1
Reply | 1.85%

Ask | Quickly give me recorded viability, T/C for O=c1[nH]cc(F)c(=O)[nH]1 + Cc1[nH]c2ccc(F)cc2c1-c1nc2c3cccnc3c3ncccc3c2[nH]1
Reply | 14.8%

Ask | Return reported viability, T/C. Input molecule: Cn1ncnc1[C@H]1c2n[nH]c(=O)c3cc(F)cc(c23)N[C@@H]1c1ccc(F)cc1 + CN(C)c1ccc(Nc2c3ccc(NC(=O)CCN4CCCC4)cc3nc3cc(NC(=O)CCN4CCCC4)ccc23)cc1
Reply | 16.9%

Ask | Return value of viability, T/C for input CC(C)n1c(=O)n(C)c2cnc3cc(F)c(-c4ccc(OCCCN5CCCCC5)nc4)cc3c21 + Cc1[nH]c2ccc(F)cc2c1-c1nc2c3cccnc3c3ncccc3c2[nH]1 , no commentary.
Reply | 109%

More entries:
Ask | Consider the molecule CC1COCCN1c1cc(-c2ccnn2C)c2ccnc(-c3ccn[nH]3)c2n1 (stereo unspecified) + Cc1cnc(CNC(=O)c2c(=O)c3ccc(N4CCCN(C)CC4)nc3n3c2sc2ccccc23)cn1 . State its measured viability, T/C.
Reply | 6.4%

Ask | For the molecule Nc1ccn(C2OC(CO)C(O)C2(F)F)c(=O)n1 (stereo unspecified) + CN(C)c1ccc(Nc2c3ccc(NC(=O)CCN4CCCC4)cc3nc3cc(NC(=O)CCN4CCCC4)ccc23)cc1 , give its measured viability, T/C value.
Reply | 1.22%

Ask | Write down viability, T/C measured for item Cc1cccc(N(C)C(=O)C2C(O)CCN2c2nc(C)cc(C(F)(F)F)c2C#N)c1 (stereo unspecified) + CN(C)c1ccc(Nc2c3ccc(NC(=O)CCN4CCCC4)cc3nc3cc(NC(=O)CCN4CCCC4)ccc23)cc1
Reply | 107%

Ask | Return viability, T/C for the following molecule: C=CC(=O)N1CCN(c2nc(=O)n(-c3c(C)ccnc3C(C)C)c3nc(-c4c(O)cccc4F)c(F)cc23)C(C)C1 (stereo unspecified) + CN(C)c1ccc(Nc2c3ccc(NC(=O)CCN4CCCC4)cc3nc3cc(NC(=O)CCN4CCCC4)ccc23)cc1
Reply | 102%

Ask | Supply recorded viability, T/C for CCCS(=O)(=O)Nc1ccc(F)c(C(=O)c2c[nH]c3ncc(-c4ccc(Cl)cc4)cc23)c1F + Cc1[nH]c2ccc(F)cc2c1-c1nc2c3cccnc3c3ncccc3c2[nH]1 here.
Reply | 115%

Ask | Consider the molecule Nc1ccn(C2OC(CO)C(O)C2(F)F)c(=O)n1 (stereo unspecified) + Cc1[nH]c2ccc(F)cc2c1-c1nc2c3cccnc3c3ncccc3c2[nH]1 . State its measured viability, T/C.
Reply | 1.01%

---

Test system: 966289-007-R4-J1-PDC complex spheroid viability
Experiment: Anticancer human tumor 966289-007-R4-J1-PDC cell line growth inhibition [GQUAD]; active = viability on the fitted dose curve at most 10% of control; inactive = the rest;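 note: spheroids exposed to the agents for seven days before readout; percent viability relative to DMSO vehicle control wells taken as 100%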
Details: second compound 10 µM; first compound 0.316 µM
Allowed answers: active, inactive

Ask | Test call for this molecule, please: CC[C@@]1(O)C(=O)OCc2c1cc1n(c2=O)Cc2cc3c(CN(C)C)c(O)ccc3nc2-1 + Cc1cnc(CNC(=O)c2c(=O)c3ccc(N4CCCN(C)CC4)nc3n3c2sc2ccccc23)cn1
Reply | active

Ask | Recorded test call requested for Cc1cccc(N(C)C(=O)C2C(O)CCN2c2nc(C)cc(C(F)(F)F)c2C#N)c1 (stereo unspecified) + Cc1cnc(CNC(=O)c2c(=O)c3ccc(N4CCCN(C)CC4)nc3n3c2sc2ccccc23)cn1
Reply | active

Ask | Which outcome was entered for the molecule Cn1ncnc1[C@H]1c2n[nH]c(=O)c3cc(F)cc(c23)N[C@@H]1c1ccc(F)cc1 + CN(C)c1ccc(Nc2c3ccc(NC(=O)CCN4CCCC4)cc3nc3cc(NC(=O)CCN4CCCC4)ccc23)cc1 in this test?
Reply | active

***
Ask | What classification did COc1ncnc(C2CC2)c1-c1ncc2cnn(Cc3ccc(-c4nc(C(F)(F)F)cn4C(C)C)cc3)c2n1 + Cc1[nH]c2ccc(F)cc2c1-c1nc2c3cccnc3c3ncccc3c2[nH]1 end up with in this test?
Reply | inactive

Ask | Please state the recorded outcome for this molecule: CC(C)n1c(=O)n(C)c2cnc3cc(F)c(-c4ccc(OCCCN5CCCCC5)nc4)cc3c21 + CN(C)c1ccc(Nc2c3ccc(NC(=O)CCN4CCCC4)cc3nc3cc(NC(=O)CCN4CCCC4)ccc23)cc1
Reply | inactive

Ask | Name the outcome recorded for CC1COCCN1c1cc(C2(O)CC3CCC(C2)O3)c2cnn(-c3ccn[nH]3)c2n1 (stereo unspecified) + Cc1[nH]c2ccc(F)cc2c1-c1nc2c3cccnc3c3ncccc3c2[nH]1 in the assay.
Reply | active

Ask | What is the recorded call for this molecule in the test? CC1COCCN1c1cc(C2(S(C)(=N)=O)CC2)nc(-c2ccnc3[nH]ccc23)n1 (stereo unspecified) + CN(C)c1ccc(Nc2c3ccc(NC(=O)CCN4CCCC4)cc3nc3cc(NC(=O)CCN4CCCC4)ccc23)cc1
Reply | inactive

Ask | Could you kindly confirm the outcome this assay logged for O=c1[nH]cc(F)c(=O)[nH]1 + Cc1cnc(CNC(=O)c2c(=O)c3ccc(N4CCCN(C)CC4)nc3n3c2sc2ccccc23)cn1 ?
Reply | active

Ask | // param item: CC[C@@]1(O)C(=O)OCc2c1cc1n(c2=O)Cc2cc3c(CN(C)C)c(O)ccc3nc2-1 + Cc1[nH]c2ccc(F)cc2c1-c1nc2c3cccnc3c3ncccc3c2[nH]1 ; yields the recorded call
Reply | active

Ask | Answer briefly: the call reported for CC[C@@]1(O)C(=O)OCc2c1cc1n(c2=O)Cc2cc3c(CN(C)C)c(O)ccc3nc2-1 + CN(C)c1ccc(Nc2c3ccc(NC(=O)CCN4CCCC4)cc3nc3cc(NC(=O)CCN4CCCC4)ccc23)cc1 in this assay.
Reply | active

Ask | GET /call?item= CCc1c2c(nc3ccc(O)cc13)-c1cc3c(c(=O)n1C2)COC(=O)[C@]3(O)CC + Cc1cnc(CNC(=O)c2c(=O)c3ccc(N4CCCN(C)CC4)nc3n3c2sc2ccccc23)cn1 returns the recorded outcome of this test.
Reply | active
